Test system: NCI/ADR-RES ovarian
Test: NCI-60 one-dose screen, 48 h (100 = growth as untreated, 0 = no growth, -100 = all killed)
Conditions: 10 µM unless noted
The panel holds about 83,000 compounds, 20% with a hit somewhere; the sample as a whole holds those more often.
Param threshold (80%) applies to growth; output 1.0 when value >= threshold, 0.0 when value < threshold.

>>> print(df.to_string())
                                   compound  assigned_category
0  O=C(NC(Cc1nnc2n(Cc3ccccc3)c(=O)c3c4c(sc3n12)CCCC4)c1ccc(Cl)cc1)c1ccccc1 (stereo not given)                1.0
1  COc1cc(/C=N/n2c(CN3CCOCC3)nc3ccccc3c2=O)cc(OC)c1OC                1.0
2  COc1cc2ncn3c(=O)c4c5c(sc4nc3c2cc1OC)CCCC5                1.0
3  COc1ccc(/C=N\NC(=O)c2cc(-c3ccc(Br)cc3)n(-c3ccc(S(N)(=O)=O)cc3)n2)cc1                0.0
4                     NC(=S)N/N=C/Cc1ccccc1                1.0

###

Test system: CCRF-CEM leukemia
Experiment: NCI-60 one-dose screen, 48 h (100 = growth as untreated, 0 = no growth, -100 = all killed)
Conditions: 10 µM unless noted
This is part of a sample that, as a whole, favours compounds with a hit. Of some 83,000 tested, about 20% had one in any assay.
Cut-off 90% on growth: below means t, at or above means f.

In [3]: df
Out[3]:
                                   molecule  assigned_category
0    COc1ccc2nc(NNC(=O)c3cnccn3)c3cccn3c2c1                  t
1  O=C1/C(=C/c2ccc(Br)cc2)C=C(c2ccccc2)N1CCc1ccccc1                  f
2  COc1ccc(-c2nc(SCCC(C)C)nc(N/N=C\c3cccc([N+](=O)[O-])c3)c2C#N)cc1                  t
3  CS(=O)c1cccc(-c2ccc3nc(N)n(-c4ccc(C(F)(F)F)cc4)c(=O)c3c2)c1 (stereo not given)                  f

###

System: KM12 colon
Assay: NCI-60 one-dose screen, 48 h (100 = growth as untreated, 0 = no growth, -100 = all killed)
Conditions: 10 µM unless noted
The panel holds about 83,000 compounds, 20% with a hit somewhere; the sample as a whole holds those more often.
test_readout: growth (%)

                                    compound  test_readout  test_result
 0  COc1cc2c(cc1-c1c(C)noc1C)ncc1nc(C3CCC(F)(F)CC3)n(C3CCC(OC(F)F)CC3)c12 (stereo not drawn)        growth         51.4
 1  CCN1C(=O)N(CC)C2Nn3c(s/c(=C4\C(=O)N(C)c5ccccc54)c3=O)=NC21 (stereo not drawn)        growth         29.8
 2  COc1cc(N=Nc2cc(Cc3ccc(N(C)C)cc3)c(N)cc2N(C)C)c2ncccc2c1        growth        -11.4
 3    CCc1ccccc1NC(=O)/C(C#N)=C/c1ccc(OC)cc1        growth         91.4
 4  COc1ccc(-c2cc(-c3cc(OC)ccc3OC)nc(SCC(=O)c3ccccc3)c2C#N)cc1        growth         96.8
 5  FC(F)(F)c1cc(Nc2ccc3cc(OCCCN4CCOCC4)ccc3n2)ccc1Cl        growth         16.7
 6  Cc1cc(O)c(C2=NN(c3ccc(S(N)(=O)=O)cc3)C(c3ccccc3Cl)C2)cc1Cl (stereo not drawn)        growth          -37
 7  COCCN(C(=O)c1ccc(F)cc1F)c1c(N)n(Cc2ccccc2)c(=O)[nH]c1=O        growth          105
 8  C=C(C)[C@@H]1CC[C@]2(C(=O)NC3CCCCC3)CC[C@]3(C)[C@H](CC[C@@H]4[C@@]5(C)CCC(=O)C(C)(C)[C@@H]5CC[C@]43C)[C@@H]12        growth           96
 9  N#Cc1c(-c2cccc(Cl)c2)cc(-c2cccc(F)c2)[nH]c1=O        growth         87.9
10  N=c1sc(Cc2ccc(Cl)cc2)cn1CC(=O)c1ccc(F)cc1        growth         39.9
11              CC1=NOC(=O)/C1=C\c1ccc(O)cc1        growth          101
12  C[C@@H]1N=C(c2ccc3ccccc3n2)Nc2nc3ccccn3c2C1=O        growth         95.3
13  Cc1ccc(-c2c(-c3ccccc3)c(=O)oc3ccc(C)cc23)cc1        growth           92
14  O=C1/C(=C/c2ccc(Br)cc2)C=C(c2ccccc2)N1CCc1ccccc1        growth         87.9
15  O=C(NCCCNc1cc(-c2cn(-c3ccccc3)nc2-c2cccc(O)c2)ccn1)c1cccc(O)c1        growth         45.3
16  Cc1cccc(Cc2cnc(NC(=O)c3ccc4nnsc4c3)s2)c1        growth         77.9
17  Clc1cccc(Cl)c1/C=C/c1cc(/C=C/c2c(Cl)cccc2Cl)[nH]n1        growth         24.9
18               N[C@@H](CCCCNCC(=O)O)C(=O)O        growth          101
19  CN(C)c1ccc(-c2ccc3[nH]c(=O)nc(-c4ccccc4)c3c2)cn1        growth         19.8
20      CCN(CC)CCCCCCNc1cc(OC)c(Cl)c2cccnc12        growth         76.9
21  Nc1n[nH]c2cc(F)c([C@@H]3Nc4c(F)cc5[nH]ncc5c4[C@H]4C5CCC(C5)[C@@H]34)cc12 (stereo partly drawn)        growth        -40.5
22  COc1ccc(-c2nc(SCCC(C)C)nc(N/N=C\c3cccc(Cl)c3)c2C#N)cc1        growth         90.6
23  CCCCCCCCCOc1c(OC)cc(C2CC(=O)Nc3c2c(C)nn3-c2nc3ccccc3[nH]2)cc1OC (stereo not drawn)        growth        -53.1
24  O=c1c2cc(F)ccc2sc2c(NCCN3CCCCC3)nc3ccccc3c12        growth           29
25  O=C(Nc1ccc(Nc2ccncc2)cc1)c1ccc(C(=O)Nc2ccc(Nc3ccncc3)cc2)cc1        growth         47.4
26  CC(=O)[C@@H]1CC[C@]2(COS(=O)(=O)c3ccc(C)cc3)CC[C@]3(C)[C@H](CC[C@@H]4[C@@]5(C)CCCNC(C)(C)[C@@H]5CC[C@]43C)[C@@H]12        growth         52.3
27  CC1=C([Se]CC(OC(=O)[C@@H](CO)NC(=O)OC(C)(C)C)C(=O)NC(C)(C)C)C(=O)c2ccccc2C1=O (stereo partly drawn)        growth        -77.7
28  CCN1C(=O)N(CC)C2C1NN=c1s/c(=C\c3cccs3)c(=O)n12 (stereo not drawn)        growth         19.8
29  Cc1nn(-c2ccccc2)c2nc3c(c(-c4ccc(Cl)cc4)c12)CNC1(CCSCC1)N3        growth         98.3
30  O=S(=O)(Nc1cccc(Cl)c1)c1ccc(-c2cnc(C3CC3)o2)cc1        growth         20.8
31  Cc1cccc(-c2nc(N(C)c3ccc4ncsc4c3)c3ccccc3n2)n1        growth         55.4
32  CC(C)Sc1nc(NNC(N)=S)c(C#N)c(-c2ccc(F)cc2)n1        growth           99
33          CC(=O)c1ccc(NCC(=O)Nc2ccccn2)cc1        growth           99
34  COC1=CC(=O)C[C@@H](C)[C@]12Oc1c(Cl)c(OC)cc(OC)c1C2=O        growth         65.5
35  O=C(Nc1ccccc1-c1nc2ccccc2c(=O)[nH]1)c1cc2ccccc2[nH]1        growth         88.2
36  Cc1c(C(=O)N[C@@H](Cc2ccccc2)C(=O)C(=O)NCCc2ccccc2)[nH]c2ccccc2c1=O        growth          103
37  Cc1nn(-c2ccccc2)c(Oc2ccc(Cl)cc2)c1/C=N\N=c1/sc2ccccc2n1C        growth         94.6
